For reference, the following IC50 results for NAD-dependent protein deacetylase sirtuin-2 (Homo sapiens, UniProt Q8IXJ6) were taken from various sources.
PARAMETER MEASURED: IC50 (µM)

CCn1c(=O)n(CCc2ccc(N)cc2)c(=O)c2[nH]c(SSc3nc4c([nH]3)c(=O)n(CCc3ccc(N)cc3)c(=O)n4CC)nc21
4.61

(I) NC(=O)CNC(=O)c1ccccc1Nc1cccc(OCCc2ccccc2)c1
(II) CCCCOc1c(Cl)cc(C(=O)NC(=S)Nc2ccc(NC(=O)CCCCN(C)C)cc2)cc1Cl.Cl
(III) COc1c(C)cc(C(=O)NC(=S)Nc2ccc(NC(=O)CCCCN(C)C)cc2)cc1C.Cl
query: Parameters: sort_field (IC50), sort_dir (desc). Please list the labels in the order you were asked to rank them.
result: III, I, II
(III: 44.9 µM, I: 3.6 µM, II: 0.8 µM)
